# Tested on: mice
# EXPERIMENTAL DETAILS: In vivo predictive sedation-hypnosis test (inhibition of traveled distance); further: test concentration or dose not given here
# Parameters: species or system mouse
# MEASUREMENT PARAMETERS: male CD1 mice; single equimolecular intraperitoneal doses; traveled distance over 30 min after dosing (first 5 min discarded) versus control
I'd appreciate it if you could supply % Inhibition Motor Activity values for the items below.
One number for each entry, in %.

Worked cases, answers included:
Cc1ccc(-c2nc3ccc(C)cn3c2CNC(=O)c2cc(C)on2)cc1 :: 73.81
Cc1ccc(-c2nc3ccc(C)cn3c2CNC(=O)c2cc(C)n(C3CC3)c2C)cc1 :: 36.32
Cc1ccc(-c2nc3ccc(C)cn3c2CNC(=O)c2csc([N+](=O)[O-])c2)cc1 :: 51.87
Cc1ccc(-c2nc3ccc(C)cn3c2CNC(=O)c2ccncc2)cc1 :: 72.45
Cc1ccc(-c2nc3ccc(C)cn3c2CN(C)C(=O)c2cnccn2)cc1 :: 44.04
Cc1ccc(-c2nc3ccc(C)cn3c2CN(C)C(=O)c2ccc([N+](=O)[O-])cc2)cc1 :: 69.67
Cc1ccc(-c2nc3ccc(C)cn3c2CNC(=O)c2ccnc(Cl)c2)cc1 :: 54.40
Cc1ccc(-c2nc3ccc(C)cn3c2CNC(=O)c2occc2C)cc1 :: 80.12

Need % Inhibition Motor Activity for each of these compounds.
1. Cc1ccc(-c2nc3ccc(C)cn3c2CN(C)C(=O)C2CC2)cc1
2. Cc1ccc(-c2nc3ccc(C)cn3c2CN(C)C(=O)c2ccnc(Cl)c2)cc1
3. Cc1ccc(-c2nc3ccc(C)cn3c2CNC(=O)c2cscn2)cc1
4. COc1ccc(C(=O)N(C)Cc2c(-c3ccc(C)cc3)nc3ccc(C)cn23)cc1
5. Cc1ccc(-c2nc3ccc(C)cn3c2CNC(=O)c2cccnc2)cc1

1: 80.71; 2: 92.98; 3: 84.31; 4: 67.34; 5: 74.86

Need % Inhibition Motor Activity for each of these compounds.
1. Cc1ccc(-c2nc3ccc(C)cn3c2CN(C)C(=O)c2cccs2)cc1
2. Cc1ccc(-c2nc3ccc(C)cn3c2CNC(=O)C2CC2)cc1
3. Cc1ccc(-c2nc3ccc(C)cn3c2CN(C)C(=O)c2ncc(F)cc2F)cc1
4. Cc1ccc(-c2nc3ccc(C)cn3c2CNC(=O)c2ccc([N+](=O)[O-])o2)cc1
5. Cc1ccc(-c2nc3ccc(C)cn3c2CNC(=O)c2ccc3ccccc3n2)cc1

[93.98, 90.36, 35.02, 89.82, 47.98]
